Test: Hemolytic activity in human RBC assessed as hemolysis incubated for 1 hr by microplate reader assay
Type: toxicity, cell-based, Erythrocyte
Conditions: human red blood cells (erythrocytes)
result_type: HC50 at 1 h (µg/mL)
Response body: numeric value in µg/mL, unit text excluded.

(Q) // lookup HC50 at 1 h for CCCCCCCCCCCC(=O)NCCNC(=O)c1cc(NC(=O)CN(C[C@@H](N)CCCCN)C(=O)CC23CC4CC(CC(C4)C2)C3)cc(NC(=O)CN(C[C@@H](N)CCCCN)C(=O)CC23CC4CC(CC(C4)C2)C3)c1
(A) 250

(Q) Now the same for CCCCCCCCNC(=O)c1cc(NC(=O)CN(C[C@@H](N)CCCCN)C(=O)CC23CC4CC(CC(C4)C2)C3)cc(NC(=O)CN(C[C@@H](N)CCCCN)C(=O)CC23CC4CC(CC(C4)C2)C3)c1
(A) 125

(Q) Same thing, different compound: CCCCCCNC(=O)c1cc(NC(=O)CN(C[C@@H](N)CCCCN)C(=O)CC23CC4CC(CC(C4)C2)C3)cc(NC(=O)CN(C[C@@H](N)CCCCN)C(=O)CC23CC4CC(CC(C4)C2)C3)c1
(A) 125

---

Known MIC of a selection of molecules
Tested on: Enterococcus faecalis
Assay: Antibacterial activity against vancomycin-resistant Enterococcus faecalis assessed as bacterial growth inhibition incubated for 16 hrs by microplate reader assay
Type: functional
Enter your answer as a number in µg/mL; do not include the unit.

(Q) Using the record for CCCCCCCCCC(=O)NCCNC(=O)c1cc(NC(=O)CN(C[C@@H](N)CCCCN)C(=O)CC23CC4CC(CC(C4)C2)C3)cc(NC(=O)CN(C[C@@H](N)CCCCN)C(=O)CC23CC4CC(CC(C4)C2)C3)c1 , report its MIC.
(A) 4.5

(Q) Query CCCCCCCCCCCC(=O)NCCNC(=O)c1cc(NC(=O)CN(C[C@@H](N)CCCCN)C(=O)CC23CC4CC(CC(C4)C2)C3)cc(NC(=O)CN(C[C@@H](N)CCCCN)C(=O)CC23CC4CC(CC(C4)C2)C3)c1 next
(A) 4.5

(Q) Let us now turn to CCCCCCCC(=O)NCCNC(=O)c1cc(NC(=O)CN(C[C@@H](N)CCCCN)C(=O)c2ccc(-c3ccccc3)cc2)cc(NC(=O)CN(C[C@@H](N)CCCCN)C(=O)c2ccc(-c3ccccc3)cc2)c1
(A) 4.5

(Q) Could you do the same for CCCCCCNC(=O)c1cc(NC(=O)CN(C[C@@H](N)CCCCN)C(=O)CC23CC4CC(CC(C4)C2)C3)cc(NC(=O)CN(C[C@@H](N)CCCCN)C(=O)CC23CC4CC(CC(C4)C2)C3)c1 , please?
(A) 2

---

Assay: Therapeutic index, ratio of HC50 for Hemolytic activity in human RBC to MIC for Antibacterial activity against methicillin-resistant Staphylococcus aureus
Type: toxicity
Let's look at some molecules and their measured selectivity ratio.
// return just the number, without any unit appended

Some solved entries appear below for comparison.
>>> reported_measurement("CCCCCCCCCCNC(=O)c1cc(NC(=O)CN(C[C@@H](N)CCCCN)C(=O)CC23CC4CC(CC(C4)C2)C3)cc(NC(=O)CN(C[C@@H](N)CCCCN)C(=O)CC23CC4CC(CC(C4)C2)C3)c1")
62.5
>>> reported_measurement("CCCCCCNC(=O)c1cc(NC(=O)CN(C[C@@H](N)CCCCN)C(=O)CC23CC4CC(CC(C4)C2)C3)cc(NC(=O)CN(C[C@@H](N)CCCCN)C(=O)CC23CC4CC(CC(C4)C2)C3)c1")
62.5

// switching to the query molecule
(Q) Endpoint output: selectivity ratio of CCCCCCCCNC(=O)c1cc(NC(=O)CN(C[C@@H](N)CCCCN)C(=O)CC23CC4CC(CC(C4)C2)C3)cc(NC(=O)CN(C[C@@H](N)CCCCN)C(=O)CC23CC4CC(CC(C4)C2)C3)c1 . Value?
(A) 62.5
